Data credit: ChEMBL document CHEMBL4052594

- measured_on: Free fatty acid receptor 1 (Mus musculus, UniProt Q76JU9)
- Sequence (Q76JU9 whole entry): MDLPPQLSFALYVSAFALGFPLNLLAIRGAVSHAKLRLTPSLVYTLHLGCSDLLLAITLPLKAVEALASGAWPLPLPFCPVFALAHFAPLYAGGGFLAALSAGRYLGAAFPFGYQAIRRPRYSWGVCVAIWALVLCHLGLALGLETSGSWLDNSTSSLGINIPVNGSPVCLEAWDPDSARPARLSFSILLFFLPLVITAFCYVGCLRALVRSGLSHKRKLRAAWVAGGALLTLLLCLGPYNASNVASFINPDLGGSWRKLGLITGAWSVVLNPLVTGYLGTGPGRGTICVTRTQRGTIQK
- assay: Agonist activity at mouse GPR40 expressed in CHO-A12 cells assessed as increase in intracellular calcium flux measured for 100 secs by FLIPR assay
- Assay type: functional, cell-based
measured_attribute: EC50 (µM)

Guide cases for EC50, answers given:
structure_as_smiles | EC50 / µM
Cc1ccccc1Cc1ccc(N2C[C@@H](C(F)(F)F)C[C@H]2CC(=O)O)cc1 | 0.71
O=C(O)C[C@@H]1CCCN1c1ccc(Oc2ccccc2F)cc1 | 6.9
Cc1cccc(Oc2ccc(N3CCC[C@H]3CC(=O)O)cc2)c1 | 2.4
Cc1cc(OCc2ccccc2)ccc1Oc1ccc(N2C[C@@H](C(F)(F)F)C[C@H]2CC(=O)O)cc1 | 1.5
Cc1ccccc1Oc1ccc(N2C[C@@H](C(F)(F)F)C[C@H]2CC(=O)O)cc1 | 0.33
O=C(O)C[C@@H]1C[C@H](C(F)(F)F)CN1c1ccc(Oc2ccccc2C(F)(F)F)cc1 | 1.3
COc1ccc(F)c(-c2cccc(Oc3ccc(N4CCC[C@H]4CC(=O)O)cc3)c2C)c1 | 3
COc1ccc(F)c(-c2ccc(Cc3ccc(N4C[C@@H](C(F)(F)F)C[C@@H]4CC(=O)O)cc3)c(C)c2)c1 | 0.053
O=C(O)C[C@@H]1CCCN1c1ccc(Oc2ccccc2-c2ccccc2)cc1 | 1.3
COc1ccc(F)c(-c2ccc(Cc3ccc(N4C[C@H](C(F)(F)F)C[C@@H]4CC(=O)O)cc3)c(C)c2)c1 | 0.054

I. Cc1cccc(C)c1Oc1ccc(N2C[C@@H](C(F)(F)F)C[C@H]2CC(=O)O)cc1
II. COc1ccc(F)c(-c2ccc(Cc3ccc(N4CCC[C@H]4CC(=O)O)cc3)c(C)c2)c1
III. Cc1cccc(Oc2ccc(N3C[C@@H](C(F)(F)F)C[C@H]3CC(=O)O)cc2)c1C
IV. Cc1cc(OCc2ccc(Cl)cc2Cl)ccc1N1CCC[C@H]1CC(=O)O
-- ask Descending sort on EC50 required. I would appreciate it if you listed the labels in the requested order.
-- reply IV, II, III, I
(IV: 14 µM, II: 1.9 µM, III: 0.5 µM, I: 0.27 µM)

====

- assay: Half life in human liver microsomes
- Format: ADME, microsome
measured_attribute: half-life

-- ask Please report half-life for the following compound: COc1ccc(F)c(-c2ccc(Cc3ccc(N4C[C@H](C(F)(F)F)C[C@@H]4CC(=O)O)cc3)c(C)c2)c1
-- reply > 2 h

====

- assay: Terminal half life in CD-1 mouse at 0.2 mg/kg, iv by LC-MS/MS analysis
- Type: ADME, organism-based
- experimental_context: in vivo, read-out: beta t1/2 (converted)
measured_attribute: half-life (h)
Write the answer as a number in h, unit excluded.

-- ask Please report half-life for the following compound: COc1ccc(F)c(-c2ccc(Cc3ccc(N4C[C@H](C(F)(F)F)C[C@@H]4CC(=O)O)cc3)c(C)c2)c1
-- reply 7

====

- measured_on: Free fatty acid receptor 1 (Homo sapiens)
- Sequence (O14842 whole entry): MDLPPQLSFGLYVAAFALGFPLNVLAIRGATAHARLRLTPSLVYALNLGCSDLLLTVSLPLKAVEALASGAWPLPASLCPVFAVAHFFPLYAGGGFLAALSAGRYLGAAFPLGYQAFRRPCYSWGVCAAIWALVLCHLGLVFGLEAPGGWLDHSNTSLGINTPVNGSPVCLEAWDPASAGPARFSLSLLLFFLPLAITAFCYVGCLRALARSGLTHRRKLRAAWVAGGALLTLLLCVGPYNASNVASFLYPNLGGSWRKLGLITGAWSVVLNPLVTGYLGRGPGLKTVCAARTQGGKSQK
- assay: Agonist activity at human GPR40 expressed in CHO-A12 cells assessed as increase in intracellular calcium flux measured for 100 secs by FLIPR assay
- Assay type: functional, cell-based
pEC50: −log10 of the molar value.
molecules and their reported pEC50

Guide cases for pEC50, answers given:
molecule | pEC50
Cc1ccccc1Cc1ccc(N2C[C@@H](c3ccccc3)C[C@H]2CC(=O)O)cc1 | < 4.77
Cc1ccccc1Cc1ccc(N2CCC[C@@]2(C)CC(=O)O)cc1 | < 4.48

-- ask Please report pEC50 for the following molecule: O=C(O)CC1CCCCN1c1ccc(OCc2ccc(Cl)cc2Cl)cc1 (single isomer, unassigned; enantiomer 1)
-- reply < 4.48

====

- measured_on: Free fatty acid receptor 1 (Mus musculus) (UniProt Q76JU9)
- Sequence (Q76JU9 whole entry): as the sequence (Q76JU9 whole entry) above
- assay: Intrinsic activity at mouse GPR40 expressed in CHO-A12 cells assessed as increase in intracellular calcium flux at 8.3 uM measured for 100 secs by FLIPR assay […]
- Format: functional, cell-based
measured_attribute: Intrinsic activity (%)

Guide cases for Intrinsic activity, answers given:
structure_as_smiles | Intrinsic activity / %
COc1ccc(F)c(-c2ccc(Cc3ccc(N4C[C@H](C(F)(F)F)C[C@H]4CC(=O)O)cc3)c(C)c2)c1 | 140
COc1ccc(F)c(-c2cccc(Oc3ccc(N4CCC[C@H]4CC(=O)O)cc3)c2C)c1 | 83

P. Cc1cc(OCc2ccc(Cl)cc2Cl)ccc1N1CCC[C@H]1CC(=O)O
Q. Cc1cccc(Oc2ccc(N3C[C@@H](C(F)(F)F)C[C@H]3CC(=O)O)cc2)c1C
R. Cc1ccccc1Cc1ccc(N2C[C@@H](C)C[C@H]2CC(=O)O)cc1
-- ask Descending sort on Intrinsic activity required. I would appreciate it if you listed the labels in the requested order.
-- reply Q, P, R

====

- measured_on: Free fatty acid receptor 1 (Mus musculus, UniProt Q76JU9)
- assay: Agonist activity at mouse GPR40 expressed in CHO-A12 cells assessed as increase in intracellular calcium flux measured for 100 secs by FLIPR assay
- Format: functional, cell-based
measured_attribute: EC50

Guide cases for EC50, answers given:
molecule | measured_on | EC50
CC(C)(C)c1ccccc1Oc1ccc(N2CCC[C@H]2CC(=O)O)cc1 | Free fatty acid receptor 1 (Mus musculus, UniProt Q76JU9) | > 17 µM
Cc1ccccc1Cc1ccc(N2[C@H](CC(=O)O)CC[C@@H]2C)cc1 | Free fatty acid receptor 1 (Mus musculus, UniProt Q76JU9) | > 33 µM
Cc1ccccc1COc1ccc(N2CCC[C@H]2CC(=O)O)cc1C | Free fatty acid receptor 1 (Mus musculus, UniProt Q76JU9) | > 33 µM

Could you now consider this next molecule?
-- ask Please report EC50 for the following molecule: Cc1ccccc1Cc1ccc(N2C[C@@H](F)C[C@H]2CC(=O)O)cc1
-- reply > 33 µM

====

compounds and their reported EC50
- measured_on: Free fatty acid receptor 1 (Mus musculus)
- assay: Agonist activity at mouse GPR40 expressed in CHO-A12 cells assessed as increase in intracellular calcium flux measured for 100 secs by FLIPR assay
- Assay type: functional, cell-based

compound | measured_on | EC50
O=C(O)CC1CCCCCN1c1ccc(OCc2ccc(Cl)cc2Cl)cc1 (single isomer, unassigned; enantiomer 2) | Free fatty acid receptor 1 (Mus musculus) | > 33 µM

-- ask Please report EC50 for the following compound: CCOc1ccccc1Oc1ccc(N2CCC[C@H]2CC(=O)O)cc1
-- reply > 33 µM

-- ask Please report EC50 for the following compound: Cc1ccccc1Cc1ccc(N2CC[C@H](c3ccccc3)[C@H]2CC(=O)O)cc1
-- reply > 33 µM

-- ask Please report EC50 for the following compound: CN(C)c1cccc(Oc2ccc(N3CCC[C@H]3CC(=O)O)cc2)c1
-- reply > 33 µM

-- ask Please report EC50 for the following compound: O=C(O)C[C@@H]1CCCN1c1ccc(Oc2ccccc2)cc1
-- reply > 16 µM

-- ask Please report EC50 for the following compound: O=C(O)CC1CCCCN1c1ccc(OCc2ccc(Cl)cc2Cl)cc1 (single isomer, unassigned; enantiomer 2)
-- reply > 33 µM

-- ask Please report EC50 for the following compound: O=C(O)C1CC(=O)N(c2ccc(OCc3ccc(Cl)cc3Cl)cc2)C1 (stereo unspecified)
-- reply > 33 µM

====

- measured_on: Free fatty acid receptor 1 (Mus musculus)
- assay: Agonist activity at mouse GPR40 expressed in CHO-A12 cells assessed as increase in intracellular calcium flux measured for 100 secs by FLIPR assay
- Format: functional, cell-based
pEC50: −log10 of the molar value.
measured_attribute: pEC50

-- ask Consider the compound O=C(O)CC1CCCCN1c1ccc(OCc2ccc(Cl)cc2Cl)cc1 (single isomer, unassigned; enantiomer 1) tested on Free fatty acid receptor 1 (Mus musculus); state its pEC50.
-- reply < 4.48

-- ask Consider the compound Cc1ccccc1C(=O)c1ccc(N2CCC[C@H]2CC(=O)O)cc1 tested on Free fatty acid receptor 1 (Mus musculus); state its pEC50.
-- reply < 4.48

-- ask Consider the compound O=C(O)CC1CCCCCN1c1ccc(OCc2ccc(Cl)cc2Cl)cc1 (single isomer, unassigned; enantiomer 1) tested on Free fatty acid receptor 1 (Mus musculus); state its pEC50.
-- reply < 4.80

-- ask Consider the compound O=C(O)C[C@@H]1CCCN1c1ccc(Oc2ccc(Cl)cc2)cc1 tested on Free fatty acid receptor 1 (Mus musculus); state its pEC50.
-- reply < 4.48

-- ask Consider the compound Cc1ccccc1Cc1ccc(N2CCC[C@@]2(C)CC(=O)O)cc1 tested on Free fatty acid receptor 1 (Mus musculus); state its pEC50.
-- reply < 4.48

====

- measured_on: Free fatty acid receptor 1 (Mus musculus)
- assay: Agonist activity at mouse GPR40 expressed in CHO-A12 cells assessed as increase in intracellular calcium flux measured for 100 secs by FLIPR assay
- Assay type: functional, cell-based
measured_attribute: EC50 (µM)

Guide cases for EC50, answers given:
structure_as_smiles | measured_on | EC50 / µM
Cc1ccccc1COc1ccc(N2CCC[C@H]2CC(=O)O)cc1 | Free fatty acid receptor 1 (Mus musculus) | 3.4
Cc1ccccc1Cc1ccc(N2C[C@@H](C)C[C@H]2CC(=O)O)cc1 | Free fatty acid receptor 1 (Mus musculus) | 1.1

P. Cc1ccccc1Cc1ccc(N2CC[C@H](C)[C@H]2CC(=O)O)cc1
Q. CO[C@H]1C[C@@H](CC(=O)O)N(c2ccc(Oc3ccccc3C)cc2)C1
R. O=C(O)C[C@@H]1CCCN1c1ccc(OCc2ccc(Cl)cc2Cl)cc1
-- ask Order the records, beginning with the lowest EC50 and ending with the highest. I would appreciate it if you listed the labels in the requested order.
-- reply Q, P, R
(Q: 0.96 µM, P: 1.9 µM, R: 4.5 µM)
